Entry source: ChEMBL document CHEMBL4840319

# assay.target: Spike glycoprotein/Angiotensin-converting enzyme 2 (Severe acute respiratory syndrome coronavirus 2, UniProt P0DTC2+Q9BYF1)
# Sequence (Q9BYF1 18-805 limits assumed, other chains not shown): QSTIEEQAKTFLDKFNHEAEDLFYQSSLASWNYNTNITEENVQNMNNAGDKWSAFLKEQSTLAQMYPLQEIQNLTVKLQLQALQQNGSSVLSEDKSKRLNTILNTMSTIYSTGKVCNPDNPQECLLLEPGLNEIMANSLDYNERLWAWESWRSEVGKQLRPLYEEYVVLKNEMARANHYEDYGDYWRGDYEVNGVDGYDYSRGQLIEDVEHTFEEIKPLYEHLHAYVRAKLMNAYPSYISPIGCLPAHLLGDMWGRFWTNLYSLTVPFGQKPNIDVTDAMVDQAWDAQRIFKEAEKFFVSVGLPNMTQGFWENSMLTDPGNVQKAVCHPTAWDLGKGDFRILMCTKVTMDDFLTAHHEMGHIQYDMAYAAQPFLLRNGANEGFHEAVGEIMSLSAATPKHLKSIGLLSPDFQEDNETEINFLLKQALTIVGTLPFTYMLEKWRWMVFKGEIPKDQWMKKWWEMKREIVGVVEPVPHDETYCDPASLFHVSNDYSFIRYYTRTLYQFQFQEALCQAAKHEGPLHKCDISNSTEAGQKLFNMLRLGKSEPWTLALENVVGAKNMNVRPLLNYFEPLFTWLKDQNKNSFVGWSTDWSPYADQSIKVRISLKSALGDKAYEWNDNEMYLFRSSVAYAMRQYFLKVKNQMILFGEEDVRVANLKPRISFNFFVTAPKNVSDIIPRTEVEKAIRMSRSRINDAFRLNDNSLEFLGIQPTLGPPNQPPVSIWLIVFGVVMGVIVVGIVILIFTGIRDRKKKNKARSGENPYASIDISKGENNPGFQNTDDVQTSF
# test.details: Inhibition of SARS-CoV-2 spike glycoprotein/ His tagged human ACE2 interaction incubated for 1 hr followed by substrate addition and measured after 15 mins by ELISA
value.type: IC50

[[record]]
given_smiles = "CC(C)c1ccc(CO)c2ccc(C(=O)O)cc12"
value_type = "IC50"
reading = "99.1 µM"

[[record]]
given_smiles = "CC(C)c1ccc(C(=O)O)c2ccc(C(=O)O)cc12"
value_type = "IC50"
reading = "95.1 µM"

[[record]]
given_smiles = "CC(C)(O)c1ccc(CO)c2ccc(C(=O)O)cc12"
value_type = "IC50"
reading = "64.5 µM"


Entry under review: `C[C@@H](CO)c1ccc(C(=O)O)c2ccc(C(=O)O)cc12` . Reported IC50?
76.1 µM

Entry under review: `C[C@@H](CO)c1ccc(CO)c2ccc(C(=O)O)cc12` . Reported IC50?
94.4 µM
